# Target desc: human Nav1.7 (Homo sapiens (Human), UniProt Q15858)
# Assay name: Nav 1.7 in vitro PX assay (PatchXpress whole cell voltage clamp)
# Run conditions: HEK 293 cells stably transfected with human Nav1.7, partially inactivated state, read-out: hNav1.7 PX IC50
Property label: IC50 (nM)
Just the number please, in nM, no unit attached.

## Input Can you look up IC50 on human Nav1.7 (Homo sapiens (Human), UniProt Q15858) for COc1cc(C#CC2CCCC2)ccc1-n1c(=O)ccc2cc(S(=O)(=O)Nc3ccon3)ccc21 (atropisomer, axis not shown; (P)) ?
## Output 49.7

###

Catalogue of human PXR @ 2 uM POCS values
# Target desc: UniProt:O75469
# Assay name: human PXR @ 2 uM POC
Just the number please, in %, no unit attached.

>  <Molecule>
COc1cc(C#CC2CCCC2)c(F)cc1-n1c(=O)ccc2cc(S(=O)(=O)Nc3ccon3)ccc21 (atropisomer, axis not shown; (P)) [Example 10]

>  <Property label>
human PXR @ 2 uM POCS

>  <Unit>
%

>  <Measured>
2.94

$$$$

## Input Returns the measured human PXR @ 2 uM POCS for the input molecule. Input: COc1cc(C#C[C@H]2C[C@@H]2C(F)(F)F)c(F)cc1-n1c(=O)ccc2cc(S(=O)(=O)Nc3ccon3)ccc21 (atropisomer, axis not shown; (P)) [Example 4]
## Output 13.54

## Input Input COc1cc(C#C[C@@H]2C[C@@H]2C(F)(F)F)c(F)cc1-n1c(=O)ccc2cc(S(=O)(=O)Nc3ccon3)ccc21 (single isomer, unassigned) [Example 4A]
## Output 23.19

## Input Input COc1cc(C#CC2CCC(F)(F)CC2)c(F)cc1-n1c(=O)ccc2cc(S(=O)(=O)Nc3ccon3)ccc21 (atropisomer, axis not shown; (P)) [Example 1]
## Output 2.36

###

# Assay name: RLM in vitro
# Run conditions: b278 calls it HLM data in vitro
Catalogue of RLM in vitro values

Recorded results for 6 compounds are shown here.
>  <Compound>
COc1cc(C#C[C@@H]2C[C@@H]2C(F)(F)F)c(F)cc1-n1c(=O)ccc2cc(S(=O)(=O)Nc3ccon3)ccc21 (single isomer, unassigned) [Example 4A]

>  <RLM in vitro>
<14.0 µL/min/mg

$$$$
>  <Compound>
COc1cc(C#CC2CCCC(F)(F)C2)c(F)cc1-n1c(=O)ccc2cc(S(=O)(=O)Nc3ccon3)ccc21 (atropisomer, axis not shown; (P)) [Example 7]

>  <RLM in vitro>
<14.0 µL/min/mg

$$$$
>  <Compound>
COc1cc(C#C[C@@H]2C[C@H]2C(F)(F)F)c(F)cc1-n1c(=O)ccc2cc(S(=O)(=O)Nc3ccon3)ccc21 (stereo in doubt) [Example 4B]

>  <RLM in vitro>
<14.0 µL/min/mg

$$$$
>  <Compound>
COc1cc(C#CC(C)(C)C(F)(F)F)c(F)cc1-n1c(=O)ccc2cc(S(=O)(=O)Nc3ccon3)ccc21 (atropisomer, axis not shown; (P)) [Example 2]

>  <RLM in vitro>
<14.0 µL/min/mg

$$$$
>  <Compound>
COc1cc(C#CC2CCCC2)ccc1-n1c(=O)ccc2cc(S(=O)(=O)Nc3ccon3)ccc21 (atropisomer, axis not shown; (P)) [Example 3]

>  <RLM in vitro>
39 µL/min/mg

$$$$
>  <Compound>
COc1cc(C#C[C@H]2C[C@@H]2C(F)(F)F)c(F)cc1-n1c(=O)ccc2cc(S(=O)(=O)Nc3ccon3)ccc21 (atropisomer, axis not shown; (P)) [Example 4]

>  <RLM in vitro>
<14.0 µL/min/mg

$$$$

API: the following record is the query input.
## Input Returns the measured RLM in vitro for the input compound. Input: COc1cc(C#CC2CCCC2)c(F)cc1-n1c(=O)ccc2cc(S(=O)(=O)Nc3ccon3)ccc21 (atropisomer, axis not shown; (P)) [Example 10]
## Output 39.8 µL/min/mg

###

# Target desc: human PXR (Homo sapiens (Human), UniProt O75469)
# Sequence (O75469 whole entry): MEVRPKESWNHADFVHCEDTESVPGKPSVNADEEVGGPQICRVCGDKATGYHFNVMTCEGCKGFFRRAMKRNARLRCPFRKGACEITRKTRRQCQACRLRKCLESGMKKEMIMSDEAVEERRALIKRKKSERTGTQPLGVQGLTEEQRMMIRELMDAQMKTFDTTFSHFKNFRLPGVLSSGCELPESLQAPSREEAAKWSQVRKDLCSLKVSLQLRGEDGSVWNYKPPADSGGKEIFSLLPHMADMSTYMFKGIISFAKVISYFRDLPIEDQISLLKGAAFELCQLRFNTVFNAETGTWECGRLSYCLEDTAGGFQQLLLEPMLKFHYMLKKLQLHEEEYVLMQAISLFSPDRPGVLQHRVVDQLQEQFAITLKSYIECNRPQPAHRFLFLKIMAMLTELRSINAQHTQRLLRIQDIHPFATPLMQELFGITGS
# Assay name: human PXR @ 2 uM POC
Property label: human PXR @ 2 uM POCS (%)
Just the number please, in %, no unit attached.

>  <Molecule>
COc1cc(C#C[C@@H]2C[C@H]2C(F)(F)F)c(F)cc1-n1c(=O)ccc2cc(S(=O)(=O)Nc3ccon3)ccc21 (stereo in doubt) [Example 4B]

>  <Target desc>
human PXR (Homo sapiens (Human), UniProt O75469)

>  <human PXR @ 2 uM POCS (%)>
−3.81

$$$$
>  <Molecule>
COc1cc(C#CC2(C(F)(F)F)CC2)c(F)cc1-n1c(=O)ccc2cc(S(=O)(=O)Nc3ccon3)ccc21 (atropisomer, axis not shown; (P)) [Example 5]

>  <Target desc>
human PXR (Homo sapiens (Human), UniProt O75469)

>  <human PXR @ 2 uM POCS (%)>
1.73

$$$$
>  <Molecule>
COc1cc(C#CC2CCCC2)ccc1-n1c(=O)ccc2cc(S(=O)(=O)Nc3ccon3)ccc21 (atropisomer, axis not shown; (P)) [Example 3]

>  <Target desc>
human PXR (Homo sapiens (Human), UniProt O75469)

>  <human PXR @ 2 uM POCS (%)>
−1.44

$$$$
>  <Molecule>
COc1cc(C#CC(C)(C)C(F)(F)F)c(F)cc1-n1c(=O)ccc2cc(S(=O)(=O)Nc3ccon3)ccc21 (atropisomer, axis not shown; (P)) [Example 2]

>  <Target desc>
human PXR (Homo sapiens (Human), UniProt O75469)

>  <human PXR @ 2 uM POCS (%)>
1.38

$$$$
>  <Molecule>
COc1cc(C#CC2CCCC2)c(Cl)cc1-n1c(=O)ccc2cc(S(=O)(=O)Nc3ccon3)ccc21 (atropisomer, axis not shown; (P)) [Example 6]

>  <Target desc>
human PXR (Homo sapiens (Human), UniProt O75469)

>  <human PXR @ 2 uM POCS (%)>
−3.96

$$$$

API: the following record is the query input.
## Input Returns the measured human PXR @ 2 uM POCS for the input molecule. Input: COc1cc(C#CC2CCCC(F)(F)C2)c(F)cc1-n1c(=O)ccc2cc(S(=O)(=O)Nc3ccon3)ccc21 (atropisomer, axis not shown; (P)) [Example 7]
## Output −0.78

###

# Assay name: RLM in vitro
# Run conditions: b278 calls it HLM data in vitro
Property label: RLM in vitro

>  <Compound>
COc1cc(C#CC2CCC(F)(F)CC2)c(F)cc1-n1c(=O)ccc2cc(S(=O)(=O)Nc3ccon3)ccc21 (atropisomer, axis not shown; (P))

>  <RLM in vitro>
<14.0 µL/min/mg

$$$$
>  <Compound>
COc1cc(C#CC2(C(F)(F)F)CC2)c(F)cc1-n1c(=O)ccc2cc(S(=O)(=O)Nc3ccon3)ccc21 (atropisomer, axis not shown; (P))

>  <RLM in vitro>
<14.0 µL/min/mg

$$$$

API: the following record is the query input.
## Input Returns the measured RLM in vitro for the input compound. Input: COc1cc(C#CC2CCCC2)c(Cl)cc1-n1c(=O)ccc2cc(S(=O)(=O)Nc3ccon3)ccc21 (atropisomer, axis not shown; (P))
## Output 58 µL/min/mg

###

# Target desc: hNav1.7 (Homo sapiens (Human), UniProt Q15858)
# Sequence (Q15858 whole entry): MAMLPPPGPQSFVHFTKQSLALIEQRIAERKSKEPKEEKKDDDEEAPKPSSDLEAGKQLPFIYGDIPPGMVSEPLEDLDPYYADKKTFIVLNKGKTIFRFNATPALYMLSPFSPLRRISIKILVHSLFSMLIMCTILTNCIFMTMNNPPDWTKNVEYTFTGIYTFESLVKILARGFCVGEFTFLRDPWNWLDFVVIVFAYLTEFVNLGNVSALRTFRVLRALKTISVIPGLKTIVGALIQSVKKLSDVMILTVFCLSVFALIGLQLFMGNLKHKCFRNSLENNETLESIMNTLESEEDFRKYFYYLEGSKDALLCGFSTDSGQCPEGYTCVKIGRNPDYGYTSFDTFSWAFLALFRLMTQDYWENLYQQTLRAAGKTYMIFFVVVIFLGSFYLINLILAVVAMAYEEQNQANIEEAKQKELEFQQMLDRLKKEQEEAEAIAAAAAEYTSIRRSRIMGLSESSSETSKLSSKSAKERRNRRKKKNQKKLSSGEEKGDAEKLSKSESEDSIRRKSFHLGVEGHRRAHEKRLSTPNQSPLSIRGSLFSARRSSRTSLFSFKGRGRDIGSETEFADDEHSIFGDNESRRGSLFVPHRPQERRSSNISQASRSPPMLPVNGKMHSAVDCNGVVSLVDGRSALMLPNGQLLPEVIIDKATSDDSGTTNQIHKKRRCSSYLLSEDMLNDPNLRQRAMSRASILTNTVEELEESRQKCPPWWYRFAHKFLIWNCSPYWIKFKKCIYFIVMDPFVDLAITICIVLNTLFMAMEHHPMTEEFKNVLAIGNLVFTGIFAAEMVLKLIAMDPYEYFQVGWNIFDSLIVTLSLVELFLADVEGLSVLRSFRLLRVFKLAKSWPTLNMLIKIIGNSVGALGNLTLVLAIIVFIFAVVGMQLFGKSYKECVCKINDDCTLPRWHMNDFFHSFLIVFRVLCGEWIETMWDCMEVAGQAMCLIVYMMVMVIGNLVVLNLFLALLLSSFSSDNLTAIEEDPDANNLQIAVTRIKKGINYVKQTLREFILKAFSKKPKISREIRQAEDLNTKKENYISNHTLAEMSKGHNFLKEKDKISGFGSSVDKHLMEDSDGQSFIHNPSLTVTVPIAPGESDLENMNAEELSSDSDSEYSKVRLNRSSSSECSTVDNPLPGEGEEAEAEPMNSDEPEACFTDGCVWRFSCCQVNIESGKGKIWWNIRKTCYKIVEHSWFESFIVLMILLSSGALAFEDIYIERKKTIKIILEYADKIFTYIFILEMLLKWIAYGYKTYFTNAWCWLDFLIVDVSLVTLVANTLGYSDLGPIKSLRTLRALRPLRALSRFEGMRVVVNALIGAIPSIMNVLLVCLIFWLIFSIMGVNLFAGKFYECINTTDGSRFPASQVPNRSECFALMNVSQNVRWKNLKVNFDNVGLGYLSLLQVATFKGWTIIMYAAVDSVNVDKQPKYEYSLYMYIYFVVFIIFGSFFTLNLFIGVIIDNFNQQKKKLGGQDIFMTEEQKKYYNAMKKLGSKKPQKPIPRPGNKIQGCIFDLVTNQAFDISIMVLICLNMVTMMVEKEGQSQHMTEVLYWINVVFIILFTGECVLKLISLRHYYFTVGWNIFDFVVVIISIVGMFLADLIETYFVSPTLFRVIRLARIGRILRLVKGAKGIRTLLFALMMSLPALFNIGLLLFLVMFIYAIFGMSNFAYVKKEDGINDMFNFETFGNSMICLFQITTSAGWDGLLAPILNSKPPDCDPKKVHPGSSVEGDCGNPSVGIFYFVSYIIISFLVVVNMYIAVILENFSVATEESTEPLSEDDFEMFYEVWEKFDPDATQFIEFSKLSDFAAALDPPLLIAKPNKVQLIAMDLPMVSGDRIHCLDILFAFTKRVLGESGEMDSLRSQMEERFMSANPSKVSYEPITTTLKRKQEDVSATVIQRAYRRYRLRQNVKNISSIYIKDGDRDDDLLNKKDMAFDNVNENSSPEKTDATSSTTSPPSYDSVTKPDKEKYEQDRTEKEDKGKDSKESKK
# Assay name: Nav 1.7 IWQ in vitro assay (IonWorks Quattro population patch-clamp)
# Run conditions: HEK 293 cells stably transfected with Nav 1.7
Property label: IC50 (nM)
Just the number please, in nM, no unit attached.

Recorded results for 2 molecules are shown here.
>  <Molecule>
COc1cc(C#CC2CCCC2)ccc1-n1c(=O)ccc2cc(S(=O)(=O)Nc3ccon3)ccc21 (atropisomer, axis not shown; (P)) [Example 3]

>  <Property label>
IC50

>  <Measured>
7.5

$$$$
>  <Molecule>
COc1cc(C#C[C@@H]2C[C@H]2C(F)(F)F)c(F)cc1-n1c(=O)ccc2cc(S(=O)(=O)Nc3ccon3)ccc21 (stereo in doubt) [Example 4B]

>  <Property label>
IC50

>  <Measured>
5.5

$$$$

## Input Returns the measured IC50 for the input molecule. Input: COc1cc(C#C[C@H]2C[C@@H]2C(F)(F)F)c(F)cc1-n1c(=O)ccc2cc(S(=O)(=O)Nc3ccon3)ccc21 (stereo in doubt) [Example 4]
## Output 7

## Input Input COc1cc(C#CC2CCCC(F)(F)C2)c(F)cc1-n1c(=O)ccc2cc(S(=O)(=O)Nc3ccon3)ccc21 (racemic) [Example 7]
## Output 7.8

## Input Input COc1cc(C#C[C@@H]2C[C@@H]2C(F)(F)F)c(F)cc1-n1c(=O)ccc2cc(S(=O)(=O)Nc3ccon3)ccc21 (single isomer, unassigned) [Example 4A]
## Output 6.8

## Input Input COc1cc(C#CC(C)(C)C(F)(F)F)c(F)cc1-n1c(=O)ccc2cc(S(=O)(=O)Nc3ccon3)ccc21 (atropisomer, axis not shown; (P)) [Example 2]
## Output 1.2

## Input Input COc1cc(C#CC2CCC(F)(F)CC2)c(F)cc1-n1c(=O)ccc2cc(S(=O)(=O)Nc3ccon3)ccc21 (atropisomer, axis not shown; (P)) [Example 1]
## Output 3.3
